// data source = PubChem BioAssay AID1159580

- ASSAY_NOTES: chemical genetic growth profiling, strain panel (AID 1159580);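 further: tested at 20 µM; growth read once vehicle control cultures reached saturation at 30 °C; 1 = growth at the plate median or of vehicle wells; lower values mean less growth of the strain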
- PARTICULARS: S. cerevisiae deletion strains, growth OD, locus YAL040C, strain CLN3, stronger effect = lower value
In all, about 5,500 compounds went through this assay and about 2,000 (36%) were called active. About 18% were inconclusive and are not listed. The list shows a part of the results.
MEASURED_ATTRIBUTE: normalized growth
Give the figure only, with no unit attached.

These solved cases illustrate the format of a correct answer.
Q: Which normalized growth value is on record for CNCCC=C1c2ccccc2CCc2ccccc21 ?
Ans: 1.01

Q: Try CCCCCC[C@@H]([C@@H](C)O)n1cnc2c(N)ncnc21 next.
Ans: 1.02

Q: CCN1CCC[C@H]1CNC(=O)c1c(O)c(Cl)cc(Cl)c1OC ?
Ans: 1.01

Q: Further, for CO[C@H]1CC=C2CCN3CCC4=C(CC(=O)OC4)[C@]23C1 ?
Ans: 0.99

Q: # repeat for Nc1nc(N)c2nc(-c3ccccc3)c(N)nc2n1
Ans: 0.986

New cases:
Q: Entry O=c1[nH]c(=O)n([C@H]2C[C@H](O)[C@@H](CO)O2)cc1/C=C/Br has what normalized growth?
Ans: 0.98

---

Reported normalized growth values for the following compounds.
- ASSAY_NOTES: chemical genetic growth profiling, strain panel (AID 1159580);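 further: tested at 20 µM; growth read once vehicle control cultures reached saturation at 30 °C; 1 = growth at the plate median or of vehicle wells; lower values mean less growth of the strain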
- PARTICULARS: S. cerevisiae deletion strains, growth OD, locus YOR069W, strain VPS5, stronger effect = lower value
The whole screen tested about 5,500 compounds, of which about 2,000 (36%) were called active. About 18% were inconclusive and are not listed. The list shows a part of the results.
Answer with a bare number; do not write a unit.

As a guide, the following entries are already answered.
Q: What value of normalized growth has been recorded for this entry: CC1(C)O[C@@H]2CC3C4C[C@H](F)C5=CC(=O)C=CC5(C)C4C(O)CC3(C)[C@]2(C(=O)CO)O1 (stereo partly specified)
Ans: 1.01

Q: Subsequent entry: CCn1cc(C(=O)O)c(=O)c2cc(F)c(N3CCNCC3)cc21
Ans: 1.01

Q: Now consider CC(=O)O[C@H]1C[C@@]2(C)[C@H](c3ccoc3)OC(=O)[C@H]3O[C@]32[C@@]2(C)C1[C@]1(C)C(C[C@H]2OC(C)=O)C(C)(C)[C@H](OC(C)=O)C[C@@H]1OC(C)=O (stereo partly specified) .
Ans: 0.992

Q: Ok, now CC(=O)OC1CC2C(C)(C)CCCC2(C)C2CCC3(C)C(c4ccoc4)OC(=O)C4OC43C12C (stereo unspecified)
Ans: 1.01

Further cases:
Q: I would be grateful if you could share the reported normalized growth for CCN(CCCCOC(=O)c1ccc(OC)c(OC)c1)C(C)Cc1ccc(OC)cc1 (stereo unspecified) .
Ans: 0.986

Q: Cool, now OC1C(O)C(O)C(O)C(O)C1O (stereo unspecified)
Ans: 0.997

Q: Record: CC(=O)Nc1ccc(O)cc1
Ans: 0.984

Q: What do we get for CC1=C2C(=CO[C@H](C)[C@H]2C)C(=O)C(C(=O)O)=C1O ?
Ans: 0.973

Q: Another compound: COc1cc([C@@H]2c3cc4c(cc3[C@H](OC(C)=O)[C@H]3COC(=O)[C@H]23)OCO4)cc(OC)c1OC
Ans: 0.99

Q: Then this compound: CCN(CC)CCNc1ccc(CO)c2sc3ccccc3c(=O)c12
Ans: 0.993

Q: Next compound: COc1cc([C@@H]2c3cc4c(cc3[C@H](O)[C@H]3COC(=O)[C@@H]23)OCO4)cc(OC)c1OC
Ans: 0.991

Q: Queued: ClC(Cl)=C(c1ccc(Cl)cc1)c1ccc(Cl)cc1
Ans: 0.955

Q: Note, next up: CN(C)CCC=C1c2ccccc2C=Cc2ccccc21
Ans: 0.983

Q: Now the compound CN(C)CC/C=C1/c2ccccc2COc2ccccc21
Ans: 1.01
